- experimentalSystem: Human PAD4 (enzyme inhibition assays) (human, UniProt Q9UM07 1-663, limits assumed)
- Sequence (Q9UM07 whole entry): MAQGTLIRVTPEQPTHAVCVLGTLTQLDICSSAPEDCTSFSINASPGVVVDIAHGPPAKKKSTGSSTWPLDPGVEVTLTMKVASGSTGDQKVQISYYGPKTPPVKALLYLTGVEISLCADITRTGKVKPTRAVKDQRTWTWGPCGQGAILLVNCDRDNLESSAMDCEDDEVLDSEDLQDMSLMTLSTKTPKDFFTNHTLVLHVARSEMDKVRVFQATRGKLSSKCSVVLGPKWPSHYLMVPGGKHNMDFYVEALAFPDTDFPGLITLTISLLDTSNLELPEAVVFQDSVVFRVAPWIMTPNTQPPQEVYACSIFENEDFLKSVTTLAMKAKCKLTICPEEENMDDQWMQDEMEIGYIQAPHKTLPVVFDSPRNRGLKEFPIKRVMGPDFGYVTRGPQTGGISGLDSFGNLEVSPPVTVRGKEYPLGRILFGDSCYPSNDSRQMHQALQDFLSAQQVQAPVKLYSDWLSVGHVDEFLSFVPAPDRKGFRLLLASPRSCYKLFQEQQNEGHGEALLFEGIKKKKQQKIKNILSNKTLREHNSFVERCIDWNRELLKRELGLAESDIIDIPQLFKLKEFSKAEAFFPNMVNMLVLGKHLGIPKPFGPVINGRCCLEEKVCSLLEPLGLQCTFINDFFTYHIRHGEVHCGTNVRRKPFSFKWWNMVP
- protocolText: cell-based or functional assay
Here, each record is paired with measured IC50, human PAD4 enzyme inhibitory activity (citrullination of BAEE, colorimetric) data.
metric: IC50, human PAD4 enzyme inhibitory activity (citrullination of BAEE, colorimetric) (nM)

[
  {
    "binder": "Lib1(6R)-1-39 (antibody, human IgG1, lambda, V domains shown, Tested as full-length antibody (human IgG1/human k) from Expi293) VH: EVQLLESGGGLVQPGGSLRLSCAASGFTFSTYAMGWVRQAPGKGLEFVAAIRNDGSWTGTSVNAKTRFTISRDNSKNTLYLQMNSLRAEDTAVYYCAKYTGSSGGSIGAWGQGTLVTVSS VL: SYELTQPPSVSVSPGQTARITCSGGNRNYYYGWYQQKPGQAPVTVIYANDKRPSGIPERFSGSNSGSTTTLTISGVQAEDEADYYCGTATTGKYVFGGGTKLTVLG",
    "readingUnit": "nM",
    "dataValue": 8.7
  },
  {
    "binder": "anti-PAD4 antibody 4-2-25 (antibody, human IgG1, lambda, V domains shown, Lib2(5R)-2-25 with the 84th asparagine of the heavy chain substituted with serine; full-length IgG from ExpiCHO) VH: EVQLLESGGGLVQPGGSLRLSCAASGFTFSTYAMGWVRQAPGKGLEFVAAIRNDGSWTGYPPPLKGRFTISRDNSKNTLYLQMSSLRAEDTAVYYCAKYTGSSGGSIGAWGQGTLVTVSS VL: SYELTQPPSVSVSPGQTARITCSGGNRNYYYGWYQQKPGQAPVTVIYANDKRPSGIPERFSGSNSGSTTTLTISGVQAEDEADYYCGTAYTGKYVFGGGTKLTVLG",
    "readingUnit": "nM",
    "dataValue": 7.6
  },
  {
    "binder": "anti-PAD4 antibody 3-1-39 (antibody, human IgG1, lambda, V domains shown, Lib1(6R)-1-39 with the 84th asparagine of the heavy chain substituted with serine; full-length IgG from ExpiCHO) VH: EVQLLESGGGLVQPGGSLRLSCAASGFTFSTYAMGWVRQAPGKGLEFVAAIRNDGSWTGTSVNAKTRFTISRDNSKNTLYLQMSSLRAEDTAVYYCAKYTGSSGGSIGAWGQGTLVTVSS VL: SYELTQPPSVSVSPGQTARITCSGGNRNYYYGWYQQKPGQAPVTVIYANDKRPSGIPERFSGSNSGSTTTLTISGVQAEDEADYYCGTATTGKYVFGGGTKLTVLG",
    "readingUnit": "nM",
    "dataValue": 8.8
  }
]
